- SYSTEM TESTED: UniProt P05804
QUANTITY NAME: pIC50
Scale: negative log10 of molar concentration, which is what pIC50 denotes.

Data request: GET /values?readout=pIC50&item= CC1(C)Cc2cccc(Oc3ccc(S(=O)(=O)NCc4cccc5ccccc45)s3)c2O1
Data returned: 3.02

###

- SYSTEM TESTED: E. coli GUS (Escherichia coli, UniProt P05804)
- Sequence (P05804 whole entry): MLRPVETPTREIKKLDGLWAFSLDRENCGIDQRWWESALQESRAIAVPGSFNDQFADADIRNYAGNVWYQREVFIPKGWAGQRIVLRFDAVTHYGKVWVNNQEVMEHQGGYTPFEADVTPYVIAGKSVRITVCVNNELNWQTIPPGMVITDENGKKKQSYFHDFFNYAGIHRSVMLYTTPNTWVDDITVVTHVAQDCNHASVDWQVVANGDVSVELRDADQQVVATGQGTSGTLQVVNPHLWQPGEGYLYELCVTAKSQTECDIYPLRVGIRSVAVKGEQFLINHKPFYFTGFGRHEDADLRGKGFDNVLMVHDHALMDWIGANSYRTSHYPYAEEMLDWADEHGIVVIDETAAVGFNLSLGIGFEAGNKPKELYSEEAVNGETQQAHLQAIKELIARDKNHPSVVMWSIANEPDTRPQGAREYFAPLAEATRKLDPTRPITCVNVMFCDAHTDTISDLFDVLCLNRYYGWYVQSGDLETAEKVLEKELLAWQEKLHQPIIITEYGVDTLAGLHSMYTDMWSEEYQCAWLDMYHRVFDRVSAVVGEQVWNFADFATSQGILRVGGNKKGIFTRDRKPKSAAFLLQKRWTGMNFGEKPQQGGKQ
- ASSAY REMARKS: GUS enzyme assay, manual version (purified E. coli GUS, 4MUG)
- Format: biochemical
- CONDITION INFO: listed as mefloquine hydrochloride; read-out: average IC50 in the E. coli GUS enzyme assay
QUANTITY NAME: pIC50
Scale: negative log10 of molar concentration, which is what pIC50 denotes.

Data request: GET /values?readout=pIC50&item= OC(c1cc(C(F)(F)F)nc2c(C(F)(F)F)cccc12)C1CCCCN1 (stereo not shown)
Data returned: 5.92

###

- SYSTEM TESTED: E. coli GUS (Escherichia coli, UniProt P05804)
- ASSAY REMARKS: GUS enzyme assay, manual version (purified E. coli GUS, 4MUG)
- Type: biochemical
- CONDITION INFO: average of at least three determinations; read-out: E. coli GUS Enzyme Assay IC50 ± SD
- Experimental: The semi-automated GUS high throughput enzyme assay was performed as previously described and was used to screen the Prestwick Chemical Collection. The follow-up studies were performed manually in a similar manner with the exception of plate type and volumes, as briefly outlined here. […] Fluorescence data, expressed in relative fluorescence units (RFU), were normalized to DMSO (100% activity) and “no enzyme” (0% activity) controls as maximum and minimum responses, respectively. […]
QUANTITY NAME: IC50
Reply with the number and its unit after it.

Data request: GET /values?readout=IC50&item= Cc1cc(C(=O)NNCc2ccccc2)no1 [Isocarboxazid, isocarboxazid]
Data returned: 128 nM

###

- SYSTEM TESTED: endogenous GUS activity in whole E. coli cells (Escherichia coli)
- Sequence (P05804 whole entry): as above
- ASSAY REMARKS: GUS cell based assay (whole E. coli cells, 4MUG)
- CONDITION INFO: read-out: IC50 in the E. coli cell-based assay
QUANTITY NAME: pIC50
Scale: negative log10 of molar concentration, which is what pIC50 denotes.

Data request: GET /values?readout=pIC50&item= OC(c1cc(C(F)(F)F)nc2c(C(F)(F)F)cccc12)C1CCCCN1 (stereo not shown)
Data returned: 5.22

###

- SYSTEM TESTED: mammalian GUS purified from Bovine taurus liver (Bos taurus)
- Sequence (A3KMY8 1-652): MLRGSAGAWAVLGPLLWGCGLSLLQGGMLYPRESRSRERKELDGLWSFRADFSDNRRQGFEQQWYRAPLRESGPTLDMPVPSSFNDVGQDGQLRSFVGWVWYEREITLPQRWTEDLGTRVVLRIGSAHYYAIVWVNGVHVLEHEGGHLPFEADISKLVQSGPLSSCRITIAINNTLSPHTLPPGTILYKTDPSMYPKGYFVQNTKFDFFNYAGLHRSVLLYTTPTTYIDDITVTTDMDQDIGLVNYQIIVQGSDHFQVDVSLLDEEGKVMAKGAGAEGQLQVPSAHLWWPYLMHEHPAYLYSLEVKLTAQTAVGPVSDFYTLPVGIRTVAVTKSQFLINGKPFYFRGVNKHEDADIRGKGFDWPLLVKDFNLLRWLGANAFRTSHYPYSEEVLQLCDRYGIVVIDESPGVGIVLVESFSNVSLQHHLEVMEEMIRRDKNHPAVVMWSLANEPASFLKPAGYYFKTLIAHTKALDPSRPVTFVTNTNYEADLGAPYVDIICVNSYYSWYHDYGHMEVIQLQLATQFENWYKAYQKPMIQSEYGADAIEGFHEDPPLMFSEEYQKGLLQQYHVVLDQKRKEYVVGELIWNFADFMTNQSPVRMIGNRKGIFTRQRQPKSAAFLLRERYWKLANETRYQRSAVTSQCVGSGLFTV
- ASSAY REMARKS: Bovine taurus GUS enzyme assay
- Format: biochemical
- CONDITION INFO: running text; read-out: IC50 against purified mammalian GUS
pIC50: −log10 of the molar value.
QUANTITY NAME: pIC50

Data request: Item O=C(CCNNC(=O)c1ccncc1)NCc1ccccc1 [Nialamide, nialamide] with mammalian GUS purified from Bovine taurus liver (Bos taurus) - pIC50?
Data returned: ~4.12

###

- SYSTEM TESTED: endogenous GUS activity in whole E. coli cells (Escherichia coli)
- ASSAY REMARKS: GUS cell based assay (whole E. coli cells, 4MUG)
- CONDITION INFO: average of at least three determinations; 2 hrs at 37° C.; read-out: E. coli Cell-Based Assay IC50 ± SD
QUANTITY NAME: IC50 (µM)
Note: unit µM is implicit; provide only the numeric part.

Data request: GET /values?readout=IC50&item= NNCCc1ccccc1
Data returned: 7.12
